system: T1, huTfR Apical Domain-Avi-His (human, biotin on the Avi tag (BirA) where captured on streptavidin)
T1 construct: also called huTfR apical Avi-His; hTfR Apical
T1 chain: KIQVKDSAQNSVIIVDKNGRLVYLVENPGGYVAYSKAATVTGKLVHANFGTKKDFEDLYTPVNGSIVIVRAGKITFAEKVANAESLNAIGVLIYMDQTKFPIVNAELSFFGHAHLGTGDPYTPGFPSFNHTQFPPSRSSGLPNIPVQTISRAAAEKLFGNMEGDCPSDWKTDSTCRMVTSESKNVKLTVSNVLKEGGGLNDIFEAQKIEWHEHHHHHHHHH
test-summary: ELISA OD450, supernatant
From the text: Hybridoma culture supernatants from 319 hybridomas obtained as described above were screened for their ability to bind Avi-His-tagged huTfR ECD, huTfR apical domain, and muTfR ECD (as described in Example 1) as compared to binding to an irrelevant Avi-His-tagged control protein. […] The plates were read for absorbance at 450 nm on a SpectraMax M5 (Molecular Devices, Sunnyvale, CA) using SoftMax Pro software.
Below, each entry is listed alongside its reported ratio over irrelevant protein.
Answer format: numeric, fold implied, no suffix.

Some solved entries appear below for comparison.
binder	quantity	experimental-value
TfR16 (mouse hybridoma antibody) (antibody, V domains shown, mouse IgG in hybridoma supernatant) VH: EVQLQQSGTVLARPGASVKMSCKTSGYSFSSYWMHWVKQRPGQGLEWIGTIYPGNSDTIYNQNFKGKAKLTAVTSASTAYMELSSLTNEDSAVYYCSTIYYFSNWGQGTTLTVSS VL: DIKMTQSPSPMFASLGERVTITCKASQDINSYLSWFQQKPGKSPKTLIYRANRLLDGVPSRFSGSGSGQDYSLTISSLDYEDVGIYYCLQYDVFPYTFGGGTKLEIK	ratio over irrelevant protein	18
TfR5 (mouse hybridoma antibody) (antibody, V domains shown, mouse IgG in hybridoma supernatant) VH: QVQLQQSGPELVKPGASVKMSCKASGYTFTNYYIHWVKQRPGQGLEWIGWIYPGDGNTNYNEKFKGKTTLTADKSSSTAYMLLSSLTSEDSAIYFCARDGSSAPKFTYWGQGTLVTVSA VL: DIVMTQSPSSLTVTAGEKVTMRCKSSQSLLNSGNQKNYLTWYQQKPGQPPKLLFYWASTRESGVPDRFTGSGSGTDFTLTISSVQAEDLAVYYCQNDYSYPLTFGAGTKLELK	ratio over irrelevant protein	15

Here is another binder to look at.
Exam item: Given TfR10 (mouse hybridoma antibody) (antibody, V domains shown, mouse IgG in hybridoma supernatant) VH: QVQLQQSGPELVKPGASVKMSCKASGYTFTSYYIHWVKQRPGQGLEWIGWIYPGDGNTNYNEKFKGKTTLTADKSSSTAYMLLSSLTSEDSAIYFCARDGSIPFAYWGQGTLVTVSA VL: DIVMTQSPSSLTVTAGEKVTMSCKSSQSLLNSGNQKNYLTWYQQKPGQPPKLLIYWASTRESGVPDRFTGSGSGTDFTLTISSVQAEDLAVYYCQNDYSYPLTFGAGTKLELK , state its recorded ratio over irrelevant protein.
Marked response: 35
